- Run Description: label from the status in PepcDB records
Reported Endpoint: protein production

Biopolymer Sequence	Measured Value
LNDALLLMEANIEDPLTTDEIAGLVGVSRRQLERLFRQYLGAMPSKYYLNLRLLKARTQLQRTSKSVVQVSLACGFSSAAHFSNAYRERFGVTPREDRRA	not failed
MPMSQSTFTILLGGELSLTERLRDAIEDSRFIAADGGMRHAAALGITPELWVGDFDSTPADLADAFPDVPKQPYPAAKAATDGEIAVAEAIARGARRLILAGALGGERSDHALQHLLSAVSLAEEGFDLLLTSGKEEAVPLVAGTIELDLPKGSLFSVPGFSELRGLAIENARYPLADFHLPFGSSRTISNVAEGKVRFSLRSGRAIVLARPYDLSGV	failed
MQFQIGDMVARKSYQMDVLFRIIGIEQTSKGNSIAILHGDEVRLIADSDFSDLVAVKKDEQMMRKKKDESRMNESLELLRQDYKLLREKQEYYATSQYQHQEHYFHMPGKVLHLDGDEAYLKKCLNVYKKIGVPVYGIHCHEKKMSASIEVLLDKYRPDILVITGHDAYSKQKGGIDDLNAYRHSKHFVETVQTARKKIPHLDQLVIFAGACQSHFESLIRAGANFASSPSRVNIHALDPVYIVAKISFTPFMERINVWEVLRNTLTREKGLGGIETRGVLRIGMPYKSN	not failed
MEASRNRSLVGNNRSPEMNENDGEDVAASAAVEDVEVWDTLSNGFKRAQLYLDQNRDLIQRVNENHMSRIPDNVSRNVGLINEINGNISQVMEIYSDLSLNFAKKFDQRRRTTKDGDTTTTTTGS	failed
MNQLIFDFAAHDYPSFDKFLGTENAELVYVLRHKHGQFIYVWGEEGAGKSHLLQAWVAQALEAGKNAAYIDAASMPLTDAAFEAEYLAVDQVEKLGNEEQALLFSIFNRFRNSGKGFLLLGSEYTPQQLVIREDLRTRMAYCLVYEVKP	failed
